Data provenance: PubChem BioAssay AID1963433

# Test system: 772245-204-R-J1-PDC complex spheroid growth
# experiment-description: Anticancer human tumor 772245-204-R-J1-PDC patient-derived rhabdomyosarcoma cell line growth inhibition [Asc]
# measurement-parameters: second compound 1 µM; first compound 0.00949 µM; stronger effect = lower value
Note to self: use rule met only for viability, T/C readings below 90%; a reading exactly at 90% still gets rule not met.

INSERT INTO measurements (molecule, category) VALUES
  ('CCN1C(C(=O)NC23CCC(C(=O)O)(CC2)CC3)C(c2cccc(Cl)c2F)C2(C(=O)Nc3cc(Cl)ccc32)C12CCCCC2 (stereo unspecified) + Cc1c(S(C)(=O)=O)c(-c2cc(F)cc(N3CCN(c4ccc(NS(=O)(=O)c5ccc(NC(CCN6CCC(C(=O)OCCCP(=O)(O)O)CC6)CSc6ccccc6)c(S(=O)(=O)C(F)(F)F)c5)cc4)CC3)c2)c(-c2ccc(Cl)cc2)n1C(C)C', 'rule met'),
  ('Cc1nc(N2CCC3(CC2)COC(C)C3N)c(CO)nc1Sc1ccnc(N)c1Cl (stereo unspecified) + CNC(C)C(=O)NC1CN(S(=O)(=O)c2cccc(S(=O)(=O)N3CCC4CCC(C(=O)NC(c5ccccc5)c5ccccc5)N4C(=O)C(NC(=O)C(C)NC)C3)c2)CCC2CCC(C(=O)NC(c3ccccc3)c3ccccc3)N2C1=O', 'rule not met'),
  ('NC(=O)C(=Cn1cnc(-c2cc(C(F)(F)F)cc(C(F)(F)F)c2)n1)c1cncnc1 + CNC(C)C(=O)NC1CN(S(=O)(=O)c2cccc(S(=O)(=O)N3CCC4CCC(C(=O)NC(c5ccccc5)c5ccccc5)N4C(=O)C(NC(=O)C(C)NC)C3)c2)CCC2CCC(C(=O)NC(c3ccccc3)c3ccccc3)N2C1=O', 'rule not met'),
  ('NC(=O)C(=Cn1cnc(-c2cc(C(F)(F)F)cc(C(F)(F)F)c2)n1)c1cncnc1 + Cc1c(S(C)(=O)=O)c(-c2cc(F)cc(N3CCN(c4ccc(NS(=O)(=O)c5ccc(NC(CCN6CCC(C(=O)OCCCP(=O)(O)O)CC6)CSc6ccccc6)c(S(=O)(=O)C(F)(F)F)c5)cc4)CC3)c2)c(-c2ccc(Cl)cc2)n1C(C)C', 'rule met'),
  ('Cc1nc(N2CCC3(CC2)COC(C)C3N)c(CO)nc1Sc1ccnc(N)c1Cl (stereo unspecified) + Cc1c(S(C)(=O)=O)c(-c2cc(F)cc(N3CCN(c4ccc(NS(=O)(=O)c5ccc(NC(CCN6CCC(C(=O)OCCCP(=O)(O)O)CC6)CSc6ccccc6)c(S(=O)(=O)C(F)(F)F)c5)cc4)CC3)c2)c(-c2ccc(Cl)cc2)n1C(C)C', 'rule met'),
  ('CCN1C(C(=O)NC23CCC(C(=O)O)(CC2)CC3)C(c2cccc(Cl)c2F)C2(C(=O)Nc3cc(Cl)ccc32)C12CCCCC2 (stereo unspecified) + CNC(C)C(=O)NC1CN(S(=O)(=O)c2cccc(S(=O)(=O)N3CCC4CCC(C(=O)NC(c5ccccc5)c5ccccc5)N4C(=O)C(NC(=O)C(C)NC)C3)c2)CCC2CCC(C(=O)NC(c3ccccc3)c3ccccc3)N2C1=O', 'rule not met');

###

# Test system: 772245-204-R-J1-PDC complex spheroid growth
# experiment-description: Anticancer human tumor 772245-204-R-J1-PDC cell line growth inhibition [Asc];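 note: compound exposure lasted seven days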
# measurement-parameters: curve of first compound; second compound 0.03 µM
parameter: IC50 (nM)

INSERT INTO assay_data (compound, relation_symbol, value) VALUES
  ('CNC(C)C(=O)NC1CN(S(=O)(=O)c2cccc(S(=O)(=O)N3CCC4CCC(C(=O)NC(c5ccccc5)c5ccccc5)N4C(=O)C(NC(=O)C(C)NC)C3)c2)CCC2CCC(C(=O)NC(c3ccccc3)c3ccccc3)N2C1=O (configuration not stated) + CCN1C(C(=O)NC23CCC(C(=O)O)(CC2)CC3)C(c2cccc(Cl)c2F)C2(C(=O)Nc3cc(Cl)ccc32)C12CCCCC2', '>', 1000),
  ('COc1c(OCCCN2CCOCC2)ccc2c3n(c(=NC(=O)c4cnc(N)nc4)nc12)CCN3 + CCN1C(C(=O)NC23CCC(C(=O)O)(CC2)CC3)C(c2cccc(Cl)c2F)C2(C(=O)Nc3cc(Cl)ccc32)C12CCCCC2', '=', 188);

###

Each record here notes measured viability, T/C.
# Test system: 772245-204-R-J1-PDC complex spheroid growth
# experiment-description: Anticancer human tumor 772245-204-R-J1-PDC cell line growth inhibition [Asc];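 note: compound exposure lasted seven days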;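 for viability, T/C: 100% = DMSO vehicle control viability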
# measurement-parameters: second compound 0.01 µM; first compound 1 µM; stronger effect = lower value
parameter: viability, T/C (%)

INSERT INTO assay_data (compound, unit_name, value) VALUES
  ('C#Cc1c(F)ccc2cc(O)cc(-c3ncc4c(N5CC6CCC(C5)N6)nc(OCC56CCCN5CC(F)C6)nc4c3F)c12 (configuration not stated) + CNC(C)C(=O)NC1CN(S(=O)(=O)c2cccc(S(=O)(=O)N3CCC4CCC(C(=O)NC(c5ccccc5)c5ccccc5)N4C(=O)C(NC(=O)C(C)NC)C3)c2)CCC2CCC(C(=O)NC(c3ccccc3)c3ccccc3)N2C1=O', '%', 104),
  ('CCN1CCN(Cc2ccc(Nc3ncc(F)c(-c4cc(F)c5nc(C)n(C(C)C)c5c4)n3)nc2)CC1 + CNC(C)C(=O)NC1CN(S(=O)(=O)c2cccc(S(=O)(=O)N3CCC4CCC(C(=O)NC(c5ccccc5)c5ccccc5)N4C(=O)C(NC(=O)C(C)NC)C3)c2)CCC2CCC(C(=O)NC(c3ccccc3)c3ccccc3)N2C1=O', '%', 108),
  ('O=C(c1ccc(F)c(F)c1Nc1ccc(I)cc1F)N1CC(O)([C@@H]2CCCCN2)C1 + CNC(C)C(=O)NC1CN(S(=O)(=O)c2cccc(S(=O)(=O)N3CCC4CCC(C(=O)NC(c5ccccc5)c5ccccc5)N4C(=O)C(NC(=O)C(C)NC)C3)c2)CCC2CCC(C(=O)NC(c3ccccc3)c3ccccc3)N2C1=O', '%', 105),
  ('O=C(c1cc(Cc2n[nH]c(=O)c3ccccc23)ccc1F)N1CCN(C(=O)C2CC2)CC1 + CNC(C)C(=O)NC1CN(S(=O)(=O)c2cccc(S(=O)(=O)N3CCC4CCC(C(=O)NC(c5ccccc5)c5ccccc5)N4C(=O)C(NC(=O)C(C)NC)C3)c2)CCC2CCC(C(=O)NC(c3ccccc3)c3ccccc3)N2C1=O', '%', 98.5),
  ('C=C(F)C(=O)N1CCN(c2nc(OCC3CCCN3C)nc3c2CCN(c2cccc4cccc(Cl)c24)C3)CC1CC#N (configuration not stated) + CNC(C)C(=O)NC1CN(S(=O)(=O)c2cccc(S(=O)(=O)N3CCC4CCC(C(=O)NC(c5ccccc5)c5ccccc5)N4C(=O)C(NC(=O)C(C)NC)C3)c2)CCC2CCC(C(=O)NC(c3ccccc3)c3ccccc3)N2C1=O', '%', 108),
  ('COc1c(OCCCN2CCOCC2)ccc2c3n(c(=NC(=O)c4cnc(N)nc4)nc12)CCN3 + CNC(C)C(=O)NC1CN(S(=O)(=O)c2cccc(S(=O)(=O)N3CCC4CCC(C(=O)NC(c5ccccc5)c5ccccc5)N4C(=O)C(NC(=O)C(C)NC)C3)c2)CCC2CCC(C(=O)NC(c3ccccc3)c3ccccc3)N2C1=O', '%', 26.9),
  ('C=CC(=O)N1CCN(c2nc(=O)n(-c3c(C)ccnc3C(C)C)c3nc(-c4c(O)cccc4F)c(F)cc23)C(C)C1 (configuration not stated) + CNC(C)C(=O)NC1CN(S(=O)(=O)c2cccc(S(=O)(=O)N3CCC4CCC(C(=O)NC(c5ccccc5)c5ccccc5)N4C(=O)C(NC(=O)C(C)NC)C3)c2)CCC2CCC(C(=O)NC(c3ccccc3)c3ccccc3)N2C1=O', '%', 100);

###

Each record here notes measured viability, T/C.
# Tested on: 772245-204-R-J1-PDC complex spheroid growth
# experiment-description: Anticancer human tumor 772245-204-R-J1-PDC cell line growth inhibition [Asc];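 note: compound exposure lasted seven days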;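 for viability, T/C: 100% = DMSO vehicle control viability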
# measurement-parameters: second compound 1 µM; first compound 1 µM; stronger effect = lower value
parameter: viability, T/C (%)

INSERT INTO measurements (compound, parameter, value) VALUES
  ('C=C(F)C(=O)N1CCN(c2nc(OCC3CCCN3C)nc3c2CCN(c2cccc4cccc(Cl)c24)C3)CC1CC#N (stereo not drawn) + CNC(C)C(=O)NC1CN(S(=O)(=O)c2cccc(S(=O)(=O)N3CCC4CCC(C(=O)NC(c5ccccc5)c5ccccc5)N4C(=O)C(NC(=O)C(C)NC)C3)c2)CCC2CCC(C(=O)NC(c3ccccc3)c3ccccc3)N2C1=O', 'viability, T/C', 82.9),
  ('C#Cc1c(F)ccc2cc(O)cc(-c3ncc4c(N5CC6CCC(C5)N6)nc(OCC56CCCN5CC(F)C6)nc4c3F)c12 (stereo not drawn) + Cc1c(S(C)(=O)=O)c(-c2cc(F)cc(N3CCN(c4ccc(NS(=O)(=O)c5ccc(NC(CCN6CCC(C(=O)OCCCP(=O)(O)O)CC6)CSc6ccccc6)c(S(=O)(=O)C(F)(F)F)c5)cc4)CC3)c2)c(-c2ccc(Cl)cc2)n1C(C)C', 'viability, T/C', 56.8),
  ('CNC(C)C(=O)NC1CN(S(=O)(=O)c2cccc(S(=O)(=O)N3CCC4CCC(C(=O)NC(c5ccccc5)c5ccccc5)N4C(=O)C(NC(=O)C(C)NC)C3)c2)CCC2CCC(C(=O)NC(c3ccccc3)c3ccccc3)N2C1=O (stereo not drawn) + Cc1c(S(C)(=O)=O)c(-c2cc(F)cc(N3CCN(c4ccc(NS(=O)(=O)c5ccc(NC(CCN6CCC(C(=O)OCCCP(=O)(O)O)CC6)CSc6ccccc6)c(S(=O)(=O)C(F)(F)F)c5)cc4)CC3)c2)c(-c2ccc(Cl)cc2)n1C(C)C', 'viability, T/C', 39.1);
